# protocol-text: chemical genetic growth profiling, strain panel (AID 1159580);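 also: tested at 20 µM; growth read once vehicle control cultures reached saturation at 30 °C; 1 = growth at the plate median or of vehicle wells; lower values mean less growth of the strain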
# condition-label: S. cerevisiae deletion strains, growth OD, locus YMR231W, strain pep5, active compounds read low
Screen size: about 5,500 compounds; about 2,000 (36%) were called active. Another 18% or so got no clear call; they are omitted. The list shows a part of the results.
normalized growth reference
Just the number, please, no unit attached.

compound | endpoint-label | observed-value
COC(=O)[C@H]1[C@H]2C[C@@H]3c4[nH]c5cc(OC)ccc5c4CCN3C[C@H]2C[C@@H](OC(=O)c2cc(OC)c(OC)c(OC)c2)[C@@H]1OC | normalized growth | 1
CCC(COC(=O)c1cc(OC)c(OC)c(OC)c1)(c1ccccc1)N(C)C (centres undefined) | normalized growth | 0.999
O=C(NC(Cc1cc(=O)[nH]c2ccccc12)C(=O)O)c1ccc(Cl)cc1 (centres undefined) | normalized growth | 1.01

*Q* Using the record for COc1ccc(C[C@H](N)C(=O)N[C@@H]2[C@@H](CO)OC(n3cnc4c(N(C)C)ncnc43)[C@@H]2O)cc1 (some centres undefined) , report its normalized growth.
*A* 0.987

###

# protocol-text: chemical genetic growth profiling, strain panel (AID 1159580);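 also: tested at 20 µM; growth read once vehicle control cultures reached saturation at 30 °C; 1 = growth at the plate median or of vehicle wells; lower values mean less growth of the strain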
# condition-label: S. cerevisiae deletion strains, growth OD, locus YBR021W, strain FUR4, active compounds read low
Out of some 5,500 compounds screened, about 2,000 (36%) were called active. Another 18% or so got no clear call; they are omitted. The list shows a part of the results.
endpoint-label: normalized growth
// no unit, no text: just the number

Examples with answers:
molecule | observed-value
NC(=O)c1cc[n+](CC2=C(C(=O)O)N3C(=O)C(NC(=O)C(c4ccccc4)S(=O)(=O)[O-])C3SC2)cc1 (stereo not drawn) | 0.97
CC[C@@H](C(=O)O)[C@@H]1O[C@@H]([C@@H](C)[C@H](O)[C@H](C)C(=O)[C@H](CC)[C@H]2O[C@]3(C=C[C@@H](O)[C@]4(CC[C@@](C)(C5CC[C@](O)(CC)[C@H](C)O5)O4)O3)[C@H](C)C[C@@H]2C)[C@@H](C)C[C@H]1C (stereo partly drawn) | 0.168
CC[C@@H](C(=O)[C@@H](C)[C@@H](O)[C@H](C)[C@@H]1O[C@@H]([C@@H](CC)C(=O)O)CC[C@@H]1C)[C@H]1OC2(C=C[C@@H](O)[C@]3(CC[C@@](C)([C@H]4CC[C@](O)(CC)[C@H](C)O4)O3)O2)[C@H](C)C[C@@H]1C (stereo partly drawn) | 0.753
Nc1nc2ncc(CNc3ccc(C(=O)N[C@@H](CCC(=O)O)C(=O)O)cc3)nc2c(=O)[nH]1 | 1.04
CCn1cc(C(=O)O)c(=O)c2cc3c(cc21)OCO3 | 1.01

*Q* // lookup normalized growth for Cc1ccc(C(C)C)cc2c(C)ccc1-2
*A* 1.01

*Q* Which value of normalized growth has been reported for Cc1cccc(CN2CCN(C(c3ccccc3)c3ccc(Cl)cc3)CC2)c1 (stereo not drawn) in the records?
*A* 0.645

*Q* For the molecule CCn1cc(C(=O)O)c(=O)c2cnc(N3CCCC3)nc21 , what normalized growth is on record?
*A* 1.03

*Q* Quick one: normalized growth of CN(Cc1cnc2nc(N)nc(N)c2n1)c1ccc(C(=O)NC(CCC(=O)O)C(=O)O)cc1 (stereo not drawn) ?
*A* 0.958

*Q* Could you share which normalized growth value was measured for CCn1cc(C(=O)O)c(=O)c2ccc(C)nc21 ?
*A* 1.09

*Q* Entry CC1(C)C2CC(=O)O[C@@]3(C)C4=CC(=O)O[C@@H](c5ccoc5)[C@]4(C)CCC3[C@@]2(C)C=C[C@H]1O (stereo partly drawn) has what normalized growth?
*A* 1.01

*Q* Entry C[C@@H]1CC2C3CCC4=CC(=O)C=C[C@]4(C)[C@@]3(F)[C@@H](O)C[C@]2(C)[C@@]1(O)C(=O)COP(=O)(O)O (stereo partly drawn) has what normalized growth?
*A* 1.02

*Q* Can you share its normalized growth? I mean this molecule: COc1cc(C(=O)O)c(O)c2c1OCO2
*A* 0.999

*Q* Look at this molecule and give its reported normalized growth. O=C(/C=C/c1ccc(O)c(O)c1)O[C@@H]1C[C@](O)(C(=O)O)C[C@@H](O)[C@H]1O
*A* 0.992

*Q* Please report the recorded normalized growth for OC/C=C/c1ccc(O)c(O)c1 .
*A* 1.03

*Q* Sample C=CCc1cc(OC)c2c(c1OC)OCO2 — what was its normalized growth?
*A* 0.934

*Q* Fill in: normalized growth of C[C@@]12C(=O)OC(=O)[C@]1(C)C1CCC2O1 is ___
*A* 0.808

*Q* Value lookup for normalized growth; key = Nc1nc2c(c(=O)[nH]1)N(C=O)C(CNc1ccc(C(=O)N[C@@H](CCC(=O)O)C(=O)O)cc1)CN2 (stereo partly drawn)
*A* 0.988
